The molecules listed here are annotated with their EC50.
# test.method.notes: Agonist activity at SUR in Wistar rat pancreatic islets assessed as increase in insulin secretion at 5 to 20 uM incubated for 1 hr followed by glucose addition for 30 mins by quantitative sandwich enzyme immunoassay
Express your answer in nM, writing the number without its unit.

Completed entries (count: 3):
CCc1nc2ccccc2c(=O)n1CC(=O)Nc1ccc(S(=O)(=O)NC(=O)NC2CCCCC2)cc1 ... 1150
CCCCNC(=O)NS(=O)(=O)c1ccc(NC(=O)Cn2c(CC)nc3ccccc3c2=O)cc1 ... 2510
CCCCNC(=O)NS(=O)(=O)c1ccc(NC(=O)Cn2c(C)nc3ccccc3c2=O)cc1 ... 2910

QUERY: Any idea what EC50 was measured for `Cc1nc2ccc(Br)cc2c(=O)n1CC(=O)Nc1ccc(S(=O)(=O)NC(=O)NC2CCCCC2)cc1` ?
RESULT: 1680

QUERY: Can you share its EC50? I mean this molecule: `COc1ccc(-n2c(SCC(=O)Nc3ccc(S(=O)(=O)NC(=O)NC4CCCCC4)cc3)nc3ccccc3c2=O)cc1`
RESULT: 970

QUERY: # get_value(readout='EC50', item= `Cc1ccc(-n2c(SCC(=O)Nc3ccc(S(=O)(=O)NC(=O)NC4CCCCC4)cc3)nc3ccccc3c2=O)cc1` )
RESULT: 1310

QUERY: Look up EC50 for this molecule: `Cc1ccc(-n2c(SCC(=O)Nc3ccc(S(=O)(=O)NC(=O)Nc4ccccc4)cc3)nc3ccccc3c2=O)cc1`
RESULT: 3090
